test system: OV90; assay: Primary qHTS to identify gynecologic anti-cancer compounds using libraries of approved drugs and bioactive compounds (AID 1345084); details: Gynecologic cancer cell panel viability, ATPlite luminescence, 48 h; series mostly up to 57.5 µM; also: potency is read from the fitted curve at half-maximal effect; nearly all actives have a fitted effect of over 55% in size
Results filed as inconclusive are left out. Activity calls are given as the source filed them. Calls follow the shape of the dose curve; as a rule, active = well fitted cell-killing curve with a large enough effect; inconclusive = small, poorly fitted or top-dose-only effect, or effect the other way; inactive = flat fitted curve, though single readings scatter.

compound	Potency
CCc1nn(C)c(C(=O)NCc2ccc(Oc3ccc(C)cc3)cc2)c1Cl	631 nM (active)
C[C@]12CC[C@H](O)C[C@H]1CC[C@@H]1[C@@H]2[C@H](O)C(=O)[C@]2(C)[C@@H](c3ccc(=O)oc3)CC[C@]12O	282 nM (active)
CO/C1=C\C(C)=C\[C@@H](C)[C@@H](O)[C@@H](C)C/C(C)=C/C=C/[C@H](OC)[C@@H]([C@@H](C)[C@@H](O)[C@H](C)[C@@]2(O)C[C@@H](O)[C@H](C)[C@@H](C(C)C)O2)OC1=O	89.1 nM (active)
